System: ChaGoK1
method: drug activity profiling cytotoxicity
Assay type: cell-based
condition_info: Homo sapiens, ChaGo-K-1; ChaGoK1 cell line, Lung (NSCLC); read-out: Aza-T-dCyd IC50
measurement_name: IC50 (µM)
Quick reminder: number only, in µM, skip the unit.

Reported IC50 for Nc1ncn([C@H]2CC(O)[C@@H](CO)S2)c(=O)n1 (stereo partly shown) : what is it?
3.41

---

Test system: A-704
method: drug activity profiling cytotoxicity
Assay type: cell-based
condition_info: Homo sapiens, A704; A-704 cell line, Kidney; read-out: Aza-T-dCyd IC50
measurement_name: IC50

API: value(readout= IC50, system= A-704, query= Nc1ncn([C@H]2CC(O)[C@@H](CO)S2)c(=O)n1 (stereo partly shown) )
> 10 µM

---

method: Pharmacokinetic evaluation in Dog
Format: in vivo
condition_info: in vivo; Dog, PO 1.5 mg/kg; read-out: T½ (converted)
measurement_name: half-life (h)
Field format: number, assumed h, no unit text.

Sample Nc1ncn([C@H]2CC(O)[C@@H](CO)S2)c(=O)n1 (stereo partly shown) — what was its half-life?
1.68

---

method: Pharmacokinetic evaluation in Mice (Table 4)
condition_info: mouse, in vivo, Table 4, IV 1 mg/kg
measurement_name: AUC(0-t) (ng·h/mL)
Report the figure in ng·h/mL without appending any unit label.

For the compound Nc1ncn([C@H]2CC(O)[C@@H](CO)S2)c(=O)n1 (stereo partly shown) [Aza-T-dCyd, 4′-thio-5-aza-2′-deoxycytidine] , what AUC(0-t) is on record?
370

---

method: Pharmacokinetic evaluation in Mice (Table 3)
Assay type: in vivo
condition_info: mouse, in vivo; Mice, Table 3, PO 1 mg/kg
measurement_name: Cmax

What value of Cmax has been recorded for this entry: Nc1ncn([C@H]2CC(O)[C@@H](CO)S2)c(=O)n1 (stereo partly shown)
103 ng/mL

---

System: SU.86.86
method: drug activity profiling cytotoxicity
Format: cell-based
condition_info: Homo sapiens; SU.86.86 cell line, Pancreas; read-out: Aza-T-dCyd IC50
measurement_name: pIC50
# pIC50: negative log10 of molar concentration; output just the value

Need pIC50, item Nc1ncn([C@H]2CC(O)[C@@H](CO)S2)c(=O)n1 (stereo partly shown)
6.29

---

method: Pharmacokinetic evaluation in Rat
Assay type: in vivo
condition_info: in vivo; Rat, PO 0.5 mg/kg
measurement_name: AUC(0-t)

// AUC(0-t) lookup, key: Nc1ncn([C@H]2CC(O)[C@@H](CO)S2)c(=O)n1 (stereo partly shown)
190 ng·h/mL

---

method: Pharmacokinetic evaluation in Mice (Table 3)
Type: in vivo
condition_info: mouse, in vivo; Mice, Table 3, IV 1 mg/kg; read-out: T½ (converted)
measurement_name: half-life (min)
Report as a plain number; the unit min is understood.

What does the data say about its half-life? Entry: Nc1ncn([C@H]2CC(O)[C@@H](CO)S2)c(=O)n1 (stereo partly shown) [Aza-T-dCyd, 4′-thio-5-aza-2′-deoxycytidine]
30.2

---

method: Pharmacokinetic evaluation in Mice (Table 4)
condition_info: mouse, in vivo, Table 4, IV 1 mg/kg, read-out: T½ (converted)
measurement_name: half-life (min)
Hi! Could you send only the number? It should be in min, unit omitted.

Name the recorded half-life for Nc1ncn([C@H]2CC(O)[C@@H](CO)S2)c(=O)n1 (stereo partly shown) .
36.7
